Every entry's value here was drawn from patent US20210317140A1.

# TEST_SYSTEM: PI3Kδ (Homo sapiens)
# Construct: purchased Reaction Biology Corporation
# Sequence (O00329 whole entry): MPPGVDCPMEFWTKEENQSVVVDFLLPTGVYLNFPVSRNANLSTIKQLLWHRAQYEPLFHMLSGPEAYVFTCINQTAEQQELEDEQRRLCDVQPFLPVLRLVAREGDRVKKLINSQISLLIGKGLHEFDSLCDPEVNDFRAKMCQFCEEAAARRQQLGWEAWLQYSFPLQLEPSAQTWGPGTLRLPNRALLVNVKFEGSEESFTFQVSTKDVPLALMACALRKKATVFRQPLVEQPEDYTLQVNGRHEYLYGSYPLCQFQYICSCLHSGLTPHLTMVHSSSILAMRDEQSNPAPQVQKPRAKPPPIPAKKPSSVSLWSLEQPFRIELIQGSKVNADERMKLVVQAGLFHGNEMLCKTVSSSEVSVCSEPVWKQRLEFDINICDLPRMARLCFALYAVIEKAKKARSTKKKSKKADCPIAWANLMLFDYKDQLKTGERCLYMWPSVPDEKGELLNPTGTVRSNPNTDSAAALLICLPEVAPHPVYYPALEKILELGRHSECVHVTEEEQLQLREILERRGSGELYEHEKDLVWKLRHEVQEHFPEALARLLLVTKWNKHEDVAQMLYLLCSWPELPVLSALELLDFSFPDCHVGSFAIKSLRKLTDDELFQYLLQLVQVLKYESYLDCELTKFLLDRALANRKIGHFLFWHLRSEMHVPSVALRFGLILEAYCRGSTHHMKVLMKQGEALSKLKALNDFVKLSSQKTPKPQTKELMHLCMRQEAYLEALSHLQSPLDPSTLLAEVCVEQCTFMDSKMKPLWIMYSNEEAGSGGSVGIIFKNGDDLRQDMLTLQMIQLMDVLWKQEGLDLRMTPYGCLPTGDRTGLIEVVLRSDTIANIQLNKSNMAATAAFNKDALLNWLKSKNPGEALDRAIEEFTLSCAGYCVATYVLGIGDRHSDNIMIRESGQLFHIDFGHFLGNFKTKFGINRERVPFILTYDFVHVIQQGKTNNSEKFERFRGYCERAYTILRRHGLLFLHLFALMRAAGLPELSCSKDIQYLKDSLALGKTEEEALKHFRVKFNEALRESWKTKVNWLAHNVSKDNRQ
# Sequence (P27986 whole entry partner): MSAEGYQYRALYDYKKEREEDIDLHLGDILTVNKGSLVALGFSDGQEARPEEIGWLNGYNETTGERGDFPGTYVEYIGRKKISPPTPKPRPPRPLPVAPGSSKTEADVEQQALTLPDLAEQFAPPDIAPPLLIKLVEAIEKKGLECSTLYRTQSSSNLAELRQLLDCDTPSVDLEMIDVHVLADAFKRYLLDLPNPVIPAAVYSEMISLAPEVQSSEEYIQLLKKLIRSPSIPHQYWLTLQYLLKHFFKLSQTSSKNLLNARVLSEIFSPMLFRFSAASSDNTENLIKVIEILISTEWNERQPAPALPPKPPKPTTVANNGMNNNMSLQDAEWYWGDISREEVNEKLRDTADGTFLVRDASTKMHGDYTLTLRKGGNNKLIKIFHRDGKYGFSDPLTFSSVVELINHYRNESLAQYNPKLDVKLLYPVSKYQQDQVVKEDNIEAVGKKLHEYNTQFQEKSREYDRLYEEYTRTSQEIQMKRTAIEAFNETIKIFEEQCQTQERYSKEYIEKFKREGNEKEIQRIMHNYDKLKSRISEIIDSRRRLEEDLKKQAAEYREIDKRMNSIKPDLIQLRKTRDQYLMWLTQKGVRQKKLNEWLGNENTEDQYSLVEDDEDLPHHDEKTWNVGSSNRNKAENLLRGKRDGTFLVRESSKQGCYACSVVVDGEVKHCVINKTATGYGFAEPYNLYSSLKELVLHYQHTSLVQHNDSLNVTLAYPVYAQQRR
# PROTOCOL_DETAILS: PI3Kδ kinase assay (HTRF, PIP3 detection)
# Format: biochemical
# TEST_PARAMETERS: 1 μM compound, 10 μM ATP
OBSERVABLE: PI3Kδ @ 1 μM (% Inh)
Respond numerically; units are % Inh and should not be typed.

COMPOUND	QUANTITY_UNIT	PI3Kδ @ 1 μM (% Inh)
Nc1ncnc2c1c(-c1cccc3[nH]ccc13)nn2C1Cc2ccccc2C1	% Inh	43.86

# compound Nc1ncnc2c1c(-c1ccc(Br)c(O)c1)nn2C1CCc2ccccc21 (single isomer, unassigned) [36a] ; its PI3Kδ @ 1 μM (% Inh) = 76.31

# compound `Nc1ncnc2c1c(-c1cc(O)c(Cl)cc1Cl)nn2C1Cc2ccccc2C1` ; its PI3Kδ @ 1 μM (% Inh) = 94.52
